Data provenance is ChEMBL document CHEMBL1146892.

- Tested on: Enterococcus faecalis
- Protocol description: Antibacterial activity against vancomycin-resistant Enterococcus faecalis ATCC 51299
- Assay type: functional
So I've got a bunch of compounds here, and I need their MBC values.

Query :: Which measured MBC value corresponds to N=C1N(CCc2cc(C(F)(F)F)cc(C(F)(F)F)c2)[C@@H](CC2CCCCC2)CN1[C@@H](CC1CCCCC1)CN1CCCC1CN1C(N)=NC[C@@H]1Cc1ccccc1 (stereo not given in full) ?
Result :: > 10 µg/mL

Query :: // query: C[C@H]1CN=C(N)N1CC1CCCN1C[C@@H](CC1CCCCC1)N1C[C@H](CC2CCCCC2)N(CCc2cc(C(F)(F)F)cc(C(F)(F)F)c2)C1=N (stereo not given in full)
Result :: 2.5 µg/mL

Query :: And what about the compound CCCC[C@@H]1CN([C@H](Cc2ccc3ccccc3c2)CN2CCCC2CN2C(N)=NC[C@@H]2Cc2ccccc2)C(=N)N1CCc1cc(C(F)(F)F)cc(C(F)(F)F)c1 (stereo not given in full) ?
Result :: > 10 µg/mL

Query :: What about C[C@H]1CN=C(N)N1CC1CCCN1C[C@H](CC1CCCCC1)N1C[C@H](CC2CCCCC2)N(CCc2cc(C(F)(F)F)cc(C(F)(F)F)c2)C1=N (stereo not given in full) ?
Result :: > 10 µg/mL

Query :: Please do the same for CCCC[C@@H]1CN([C@@H](CC2CCCCC2)CN2CCCC2CN2C(N)=NC[C@@H]2Cc2ccccc2)C(=N)N1CC(C)c1ccc(CC(C)C)cc1 (stereo not given in full) as well.
Result :: < 2.5 µg/mL

---

- System: Enterococcus faecalis
- Protocol description: Antibacterial activity against vancomycin-resistant Enterococcus faecalis ATCC 51299
- Assay type: functional
Property measured: MBC

Query :: Would you kindly share the measured MBC for N=C1N(CCc2cc(C(F)(F)F)cc(C(F)(F)F)c2)[C@@H](CC2CCCCC2)CN1[C@H](CC1CCCCC1)CN1CCCC1CN1C(N)=NC[C@@H]1Cc1ccccc1 (stereo not given in full) ?
Result :: > 10 µg/mL

Query :: Now this one: CCCC[C@@H]1CN([C@H](CC2CCCCC2)CN2CCCC2CN2C(N)=NC[C@@H]2Cc2ccccc2)C(=N)N1CCc1cc(C(F)(F)F)cc(C(F)(F)F)c1 (stereo not given in full)
Result :: < 2.5 µg/mL

Query :: For N=C1N(CCc2cc(C(F)(F)F)cc(C(F)(F)F)c2)[C@H](CC2CCCCC2)CN1[C@@H](CC1CCCCC1)CN1CCCC1CN1C(N)=NC[C@@H]1Cc1ccccc1 (stereo not given in full) then?
Result :: < 2.5 µg/mL

Query :: Input C[C@H]1CN=C(N)N1CC1CCCN1C[C@@H](Cc1ccc2ccccc2c1)N1C[C@@H](CC2CCCCC2)N(CCc2cc(C(F)(F)F)cc(C(F)(F)F)c2)C1=N (stereo not given in full)
Result :: < 2.5 µg/mL

Query :: Request: C[C@H]1CN=C(N)N1CC1CCCN1C[C@H](CC1CCCCC1)N1C[C@@H](CC2CCCCC2)N(CCc2cc(C(F)(F)F)cc(C(F)(F)F)c2)C1=N (stereo not given in full)
Result :: > 10 µg/mL

Query :: Then this compound: C[C@H]1CN=C(N)N1CC1CCCN1C[C@@H](CC1CCCCC1)N1C[C@@H](CC2CCCCC2)N(CCc2cc(C(F)(F)F)cc(C(F)(F)F)c2)C1=N (stereo not given in full)
Result :: > 10 µg/mL

Query :: What do you have for CC(C)Cc1ccc(C(C)CN2C(=N)N([C@H](CC3CCCCC3)CN3CCCC3CN3C(N)=NC[C@@H]3C)C[C@@H]2CC2CCCCC2)cc1 (stereo not given in full) ?
Result :: > 10 µg/mL

Query :: Next record, please: CCCC[C@@H]1CN([C@H](CC2CCCCC2)CN2CCCC2CN2C(N)=NC[C@@H]2C)C(=N)N1CCc1cc(C(F)(F)F)cc(C(F)(F)F)c1 (stereo not given in full)
Result :: > 10 µg/mL

Query :: Proceed to CCCC[C@@H]1CN([C@H](CC2CCCCC2)CN2CCCC2CN2C(N)=NC[C@@H]2Cc2ccccc2)C(=N)N1CC(C)c1ccc(CC(C)C)cc1 (stereo not given in full)
Result :: < 2.5 µg/mL

Query :: Next up: CC(C)Cc1ccc(C(C)CN2C(=N)N([C@@H](CC3CCCCC3)CN3CCCC3CN3C(N)=NC[C@@H]3Cc3ccccc3)C[C@@H]2CC2CCCCC2)cc1 (stereo not given in full)
Result :: < 2.5 µg/mL

Query :: And the next one, N=C1N(CCc2cc(C(F)(F)F)cc(C(F)(F)F)c2)[C@@H](CC2CCCCC2)CN1[C@H](Cc1ccc2ccccc2c1)CN1CCCC1CN1C(N)=NC[C@@H]1Cc1ccccc1 (stereo not given in full) ?
Result :: < 2.5 µg/mL

Query :: Proceed to C[C@H]1CN=C(N)N1CC1CCCN1C[C@@H](Cc1ccc2ccccc2c1)N1C[C@H](CC2CCCCC2)N(CCc2cc(C(F)(F)F)cc(C(F)(F)F)c2)C1=N (stereo not given in full)
Result :: < 2.5 µg/mL

Query :: Follow-up item: CC(C)Cc1ccc(C(C)CN2C(=N)N([C@H](Cc3ccc4ccccc4c3)CN3CCCC3CN3C(N)=NC[C@@H]3Cc3ccccc3)C[C@@H]2CC2CCCCC2)cc1 (stereo not given in full)
Result :: > 10 µg/mL

Query :: What do you have for CC(C)Cc1ccc(C(C)CN2C(=N)N([C@@H](CC3CCCCC3)CN3CCCC3CN3C(N)=NC[C@@H]3C)C[C@H]2CC2CCCCC2)cc1 (stereo not given in full) ?
Result :: > 10 µg/mL

Query :: And the next one, CCCC[C@@H]1CN([C@H](Cc2ccc3ccccc3c2)CN2CCCC2CN2C(N)=NC[C@@H]2C)C(=N)N1CC(C)c1ccc(CC(C)C)cc1 (stereo not given in full) ?
Result :: 2 µg/mL

Query :: Now the compound CC(C)Cc1ccc(C(C)CN2C(=N)N([C@H](CC3CCCCC3)CN3CCCC3CN3C(N)=NC[C@@H]3C)C[C@H]2CC2CCCCC2)cc1 (stereo not given in full)
Result :: < 2.5 µg/mL

Query :: Another compound to look at: CC(C)Cc1ccc(C(C)CN2C(=N)N([C@H](Cc3ccc4ccccc4c3)CN3CCCC3CN3C(N)=NC[C@@H]3Cc3ccccc3)C[C@H]2CC2CCCCC2)cc1 (stereo not given in full)
Result :: > 10 µg/mL

Query :: CC(C)Cc1ccc(C(C)CN2C(=N)N([C@@H](CC3CCCCC3)CN3CCCC3CN3C(N)=NC[C@@H]3C)C[C@@H]2CC2CCCCC2)cc1 (stereo not given in full) , same question.
Result :: > 10 µg/mL

Query :: Query CCCC[C@@H]1CN([C@@H](CC2CCCCC2)CN2CCCC2CN2C(N)=NC[C@@H]2C)C(=N)N1CC(C)c1ccc(CC(C)C)cc1 (stereo not given in full) next
Result :: > 10 µg/mL

Query :: Then CC(C)Cc1ccc(C(C)CN2C(=N)N([C@H](Cc3ccc4ccccc4c3)CN3CCCC3CN3C(N)=NC[C@@H]3C)C[C@@H]2CC2CCCCC2)cc1 (stereo not given in full) ?
Result :: 2.5 µg/mL

Query :: One more compound: CCCC[C@@H]1CN([C@H](CC2CCCCC2)CN2CCCC2CN2C(N)=NC[C@@H]2C)C(=N)N1CC(C)c1ccc(CC(C)C)cc1 (stereo not given in full)
Result :: > 10 µg/mL

Query :: One more compound: CC(C)Cc1ccc(C(C)CN2C(=N)N([C@H](CC3CCCCC3)CN3CCCC3CN3C(N)=NC[C@@H]3Cc3ccccc3)C[C@H]2CC2CCCCC2)cc1 (stereo not given in full)
Result :: > 10 µg/mL

Query :: Then this compound: CC(C)Cc1ccc(C(C)CN2C(=N)N([C@H](Cc3ccc4ccccc4c3)CN3CCCC3CN3C(N)=NC[C@@H]3C)C[C@H]2CC2CCCCC2)cc1 (stereo not given in full)
Result :: < 2.5 µg/mL

Query :: # iterate: N=C1N(CCc2cc(C(F)(F)F)cc(C(F)(F)F)c2)[C@H](CC2CCCCC2)CN1[C@H](CC1CCCCC1)CN1CCCC1CN1C(N)=NC[C@@H]1Cc1ccccc1 (stereo not given in full)
Result :: 2.5 µg/mL

Query :: # repeat for CCCC[C@@H]1CN([C@H](Cc2ccc3ccccc3c2)CN2CCCC2CN2C(N)=NC[C@@H]2Cc2ccccc2)C(=N)N1CC(C)c1ccc(CC(C)C)cc1 (stereo not given in full)
Result :: > 10 µg/mL

---

Exercise: for every item that follows, state its recorded MIC.
- System: Escherichia coli
- Protocol description: Antibacterial activity against Escherichia coli ATCC 25922
- Assay type: functional

Query :: Looking for the measured MIC of N=C1N(CCc2cc(C(F)(F)F)cc(C(F)(F)F)c2)[C@@H](CC2CCCCC2)CN1[C@H](Cc1ccc2ccccc2c1)CN1CCCC1CN1C(N)=NC[C@@H]1Cc1ccccc1 (stereo partly specified) , can you help?
Result :: > 10 µg/mL

Query :: How about CC(C)Cc1ccc(C(C)CN2C(=N)N([C@@H](CC3CCCCC3)CN3CCCC3CN3C(N)=NC[C@@H]3Cc3ccccc3)C[C@@H]2CC2CCCCC2)cc1 (stereo partly specified) ?
Result :: > 10 µg/mL

Query :: For CCCC[C@@H]1CN([C@H](Cc2ccc3ccccc3c2)CN2CCCC2CN2C(N)=NC[C@@H]2C)C(=N)N1CCc1cc(C(F)(F)F)cc(C(F)(F)F)c1 (stereo partly specified) then?
Result :: > 10 µg/mL

Query :: Same question, CCCC[C@@H]1CN([C@H](Cc2ccc3ccccc3c2)CN2CCCC2CN2C(N)=NC[C@@H]2C)C(=N)N1CC(C)c1ccc(CC(C)C)cc1 (stereo partly specified) this time
Result :: 5 µg/mL

Query :: Now the same for CC(C)Cc1ccc(C(C)CN2C(=N)N([C@H](Cc3ccc4ccccc4c3)CN3CCCC3CN3C(N)=NC[C@@H]3C)C[C@@H]2CC2CCCCC2)cc1 (stereo partly specified)
Result :: > 10 µg/mL

Query :: And the next one, CC(C)Cc1ccc(C(C)CN2C(=N)N([C@@H](CC3CCCCC3)CN3CCCC3CN3C(N)=NC[C@@H]3C)C[C@@H]2CC2CCCCC2)cc1 (stereo partly specified) ?
Result :: 5 µg/mL
